- target or test system: T1, Recombinant Human FGFR2 alpha (IIIc) Fc Chimera Protein, CF (R&D systems, 712-FR-050) (human, UniProt P21802 22-377)
- T1 construct: bought; not shown: Fc part of the chimera
- T1 sequence (P21802 22-377, change not shown): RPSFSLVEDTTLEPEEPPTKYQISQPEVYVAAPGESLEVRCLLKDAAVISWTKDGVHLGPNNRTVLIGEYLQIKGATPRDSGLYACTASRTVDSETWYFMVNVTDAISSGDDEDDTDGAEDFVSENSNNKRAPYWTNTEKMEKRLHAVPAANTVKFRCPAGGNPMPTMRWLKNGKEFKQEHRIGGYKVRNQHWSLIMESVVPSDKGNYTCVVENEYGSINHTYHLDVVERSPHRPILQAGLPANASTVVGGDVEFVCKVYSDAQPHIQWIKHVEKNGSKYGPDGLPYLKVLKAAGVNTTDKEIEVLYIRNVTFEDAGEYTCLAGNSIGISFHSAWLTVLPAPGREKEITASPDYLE
- assay protocol: ELISA on plate-bound FGFR2-Fc
Bridge positions count the residues as written; N and C are the ends. Ends that are not written are not given here. COCH2 = acetyl group that carries the bridge
endpoint: ELISA luminescence signal at 10 nmol/L peptide, relative to SEQ ID NO: 47 (=1)

Provide each entry's ELISA luminescence signal at 10 nmol/L peptide, relative to SEQ ID NO: 47 (=1) from the list below.
1. ACEYNYWNQVQFTFLIAFK(COCH2)R (thioether 2-19 (inferred)) [cyclic peptide SEQ ID NO: 44]
2. RCHHNFHHARQHGFFYHYK(COCH2)R (thioether 2-19) [cyclic peptide SEQ ID NO: 388]
3. DCHTREDWQIHHLYQLLYQLK(COCH2)Y (thioether 2-21 (inferred)) [cyclic peptide SEQ ID NO: 419]
4. DCRDLQLFYIYQYLDALKK (not fully specified; thioether ring (C)-(K(acetyl))) [cyclic peptide SEQ ID NO: 124]

# output
0.5 to 0.7 ratio
0.1 to 0.5 ratio
0.1 to 0.5 ratio
0.1 to 0.5 ratio
